// data source = ChEMBL document CHEMBL1129891

Measured pIC50 of individual entries
Test system: L1210
Test: Concentration required to inhibit 50% of cell growth in L1210 murine leukemia cell line after 48 hr continuous treatment
Type: functional, cell-based
Details: Mus musculus, L1210, 48 h
Reminder that pIC50 is minus the log10 of a molar concentration.

| Compound | pIC50 |
| --- | --- |
| CC[C@@]1(O)C(=O)OCc2c1cc1n(c2=O)Cc2cc3cc(/C=C/C(=O)OC)ccc3nc2-1 | 7.21 |
| CC[C@@]1(O)C(=O)OCc2c1cc1n(c2=O)Cc2cc3c(CCc4ccccc4)cccc3nc2-1 | 7.79 |
| CC[C@@]1(O)C(=O)OCc2c1cc1n(c2=O)Cc2cc3c(CC(NC(C)=O)C(=O)OC)cccc3nc2-1 (some centres undefined) | 6.74 |

Now for the compound whose pIC50 we want.
Request: Provide measured pIC50 value, entry: `CC[C@@]1(O)C(=O)OCc2c1cc1n(c2=O)Cc2cc3c(/C=C(\NC(C)=O)C(=O)OC)cccc3nc2-1`
Result: 5.93

----------
Test system: L1210
Test: Concentration required to inhibit 50% of cell growth in L1210 murine leukemia cell line after 48 hr continuous treatment
Format: functional, cell-based
Settings: Mus musculus, L1210, 48 h
Measured pIC50 of individual entries
Reminder that pIC50 is minus the log10 of a molar concentration.

Here is how some compounds turned out for pIC50.
| Chem Smiles | Observed Value |
| --- | --- |
| CC[C@@]1(O)C(=O)OCc2c1cc1n(c2=O)Cc2cc3c(/C=C/C(=O)OC)cccc3nc2-1 | 8.12 |
| CC[C@@]1(O)C(=O)OCc2c1cc1n(c2=O)Cc2cc3c(/C=C/C(N)=O)cccc3nc2-1 | 6.92 |

Request: Provide measured pIC50 value, entry: `C=Cc1cccc2nc3c(cc12)Cn1c-3cc2c(c1=O)COC(=O)[C@]2(O)CC`
Result: 8.12

Request: Provide measured pIC50 value, entry: `CC[C@@]1(O)C(=O)OCc2c1cc1n(c2=O)Cc2cc3c(/C=C/c4ccccc4)cccc3nc2-1`
Result: 7.80

Request: Provide measured pIC50 value, entry: `CC[C@@]1(O)C(=O)OCc2c1cc1n(c2=O)Cc2cc3c(CCC(=O)OC)cccc3nc2-1`
Result: 8.21

----------
Test system DNA topoisomerase 1 (Homo sapiens, UniProt P11387), pIC50 listed for each of the molecules.
Reminder that pIC50 is minus the log10 of a molar concentration.

Here is how some molecules turned out for pIC50.
| Molecule | Attribute Measured | Observed Value |
| --- | --- | --- |
| CC[C@@]1(O)C(=O)OCc2c1cc1n(c2=O)Cc2cc3c(CC(NC(C)=O)C(=O)OC)cccc3nc2-1 (stereo not given in full) | pIC50 | 4.95 |
| CC[C@@]1(O)C(=O)OCc2c1cc1n(c2=O)Cc2cc3c(/C=C/C(N)=O)cccc3nc2-1 | pIC50 | 5.49 |
| CC[C@@]1(O)C(=O)OCc2c1cc1n(c2=O)Cc2cc3c(/C=C(\NC(C)=O)C(=O)OC)cccc3nc2-1 | pIC50 | 4.50 |
| CC[C@@]1(O)C(=O)OCc2c1cc1n(c2=O)Cc2cc3c(/C=C/C(=O)OC)cccc3nc2-1 | pIC50 | 5.17 |
| C=Cc1cccc2nc3c(cc12)Cn1c-3cc2c(c1=O)COC(=O)[C@]2(O)CC | pIC50 | 5.38 |
| CC[C@@]1(O)C(=O)OCc2c1cc1n(c2=O)Cc2cc3c(N)cccc3nc2-1 [9-AMINOCAMPTOTHECIN] | pIC50 | 5.74 |

Now for the molecule whose pIC50 we want.
Request: Provide measured pIC50 value, entry: `CC[C@@]1(O)C(=O)OCc2c1cc1n(c2=O)Cc2cc3c(CCC(=O)OC)cccc3nc2-1`
Result: 4.38
